- Test system: NCI-H1703 cells
- procedureDetails: GLS Cell Proliferation Assay (NCI-H1703 cell proliferation)
- Assay type: cell-based
- measurementSetup: NCI-H1703 cells, 5 days; read-out: Assay c) Prolif Mean IC50
Record form. Attribute: IC50. Fill in for each entry.
Return type: number; implicit unit nM.

The reported IC50 of the molecule COC(C(=O)Nc1nnc(N[C@@H]2CCN(c3ccc(F)nn3)C2)s1)c1cccc(N2CC(F)C2)c1 (single isomer, unassigned) [Example 28] was 262

Entry COC1CN(c2cccc([C@H](OC)C(=O)Nc3nnc(N[C@@H]4CCN(c5ccc(F)nn5)C4)s3)c2)C1 (single isomer, unassigned) [Example 9(a)] — recorded IC50 = 4.9

IC50 for COc1cc(OC)cc(C(OC)C(=O)Nc2nnc(N[C@@H]3CCN(c4cccnn4)C3)s2)c1 (single isomer, unassigned) [Example 43] is 2.24

Lab note: COC(C(=O)Nc1nnc(N[C@@H]2CCN(c3ccc(F)nn3)C2)s1)c1cccc(N2CC(F)(F)C2)c1 (stereo partly drawn) [Example 41] gave IC50 of 1.46

IC50 recorded for this molecule, CCOC(C(=O)Nc1nnc(N[C@@H]2CCN(c3cccnn3)C2)s1)c1cccc(N2CC(F)(F)C2)c1 (single isomer, unassigned) [Example 30] , is 37.7

Record CCO[C@H](C(=O)Nc1nnc(N[C@@H]2CCN(c3cccnn3)C2)s1)c1cc(OC)cc(OC)c1 (single isomer, unassigned) [Example 6(a)] . Reported IC50: 2.2

###

Assign pIC50 to each entry below.
- measurementTarget: cellular GLS activity in PC3 cells (Homo sapiens (Human), UniProt O94925)
- procedureDetails: GLS Cell Potency Assay (PC3 coupled assay measuring cellular glutamate depletion)
- measurementSetup: PC3 cells, 6 h incubation, glutamate depletion; read-out: Assay b) GLS cell MOA Mean IC50
Just so you know, pIC50 here is -log10 of the concentration in molar units; reply with that number alone.

Value of pIC50 reported for the molecule COc1cc(OC)cc(C(OC)C(=O)Nc2nnc(N[C@@H]3CCN(c4cccnn4)C3)s2)c1 (stereo partly shown) [Example 23] is 8.05

# pIC50 (molecule: COc1cc(OC)cc([C@H](OC)C(=O)Nc2nnc(N[C@@H]3CCN(c4cccnn4)C3)s2)c1 [Example 21(a)] ) is 9.53

Recorded result, COc1cc(OC)cc([C@@H](OC)C(=O)Nc2nnc(N[C@@H]3CCN(c4cccnn4)C3)s2)c1 [Example 21(b)] , pIC50: 8.05

The measured pIC50 associated with COc1cc(OC)cc(C(OC)C(=O)Nc2nnc(N[C@@H]3CCN(c4cccnn4)C3)s2)c1 (single isomer, unassigned) [Example 43] reads 9.53

###

- measurementTarget: GLS1 (Homo sapiens (Human))
- Sequence (O94925 63-669): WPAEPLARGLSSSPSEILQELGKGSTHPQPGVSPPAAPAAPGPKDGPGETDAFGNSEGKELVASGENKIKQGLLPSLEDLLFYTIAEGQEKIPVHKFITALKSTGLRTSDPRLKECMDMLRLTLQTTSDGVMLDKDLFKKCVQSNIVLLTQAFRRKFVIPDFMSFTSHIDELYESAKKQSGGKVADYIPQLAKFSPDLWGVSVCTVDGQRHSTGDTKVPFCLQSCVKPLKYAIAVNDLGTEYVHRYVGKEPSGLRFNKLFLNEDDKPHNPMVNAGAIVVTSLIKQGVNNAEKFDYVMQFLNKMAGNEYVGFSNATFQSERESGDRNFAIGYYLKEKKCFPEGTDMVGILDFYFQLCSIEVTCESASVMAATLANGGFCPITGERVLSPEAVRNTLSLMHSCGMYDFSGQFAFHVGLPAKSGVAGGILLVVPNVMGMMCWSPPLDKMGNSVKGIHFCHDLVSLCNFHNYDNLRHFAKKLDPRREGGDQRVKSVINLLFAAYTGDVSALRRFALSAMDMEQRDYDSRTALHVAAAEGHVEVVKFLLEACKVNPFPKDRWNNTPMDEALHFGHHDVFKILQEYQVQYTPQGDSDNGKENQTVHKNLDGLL
- procedureDetails: GLS Enzyme Potency Assay (Glutamate Oxidase/AmplexRed coupled assay)
- Assay type: biochemical
- measurementSetup: 6His tagged GLS protein (amino acids 63-669), recombinant; read-out: Assay a) enz IC50
pIC50: −log10 of the molar value.
Label satisfied when pIC50 is at or above 7; otherwise label not satisfied.

[Q] Check this molecule for pIC50 at or above 7: COC(C(=O)Nc1nnc(N[C@@H]2CCN(c3cccnn3)C2)s1)c1ccc(F)c(N2CC(F)(F)C2)c1 (stereo partly shown) [Example 38]
[A] not satisfied

[Q] hey, is pIC50 for this one >= 7? COc1cc(OC)cc([C@H](OC)C(=O)Nc2nnc(N[C@@H]3CCN(c4nccnn4)C3)s2)c1 (single isomer, unassigned) [16(b)]
[A] not satisfied

[Q] Please indicate if the recorded pIC50 for COc1cc(OC)cc(C(OC)C(=O)Nc2nnc(N[C@@H]3CCN(c4cccnn4)C3)s2)c1 (stereo partly shown) [Example 23] meets or exceeds 7.
[A] satisfied

[Q] Item COC(C(=O)Nc1nnc(N[C@@H]2CCN(c3ccc(C)nn3)C2)s1)c1cccc(N2CC(F)C2)c1 (single isomer, unassigned) [Example 36] with pIC50 of 7 or above?
[A] not satisfied

[Q] Is reported pIC50 greater than or equal to 7 here: CCOC(C(=O)Nc1nnc(N[C@@H]2CCN(c3cccnn3)C2)s1)c1cccc(N2CC(F)(F)C2)c1 (single isomer, unassigned) [Example 29]
[A] satisfied
